Test system: platelets (human platelet-rich plasma)
Protocol summary: Platelet aggregation assay (turbidimetric, platelet-rich plasma) induced by collagen, ADP or arachidonic acid
Format: cell-based
Recorded conditions: Homo sapiens, Platelet, Arachidonic acid 500 μM; read-out: Half-maximal inhibition concentration (IC50), arachidonic acid-induced platelet aggregation
Metric name: IC50 (mM)

>>> print(df.to_string())
                                   molecule  metric_name  unit_tag  op  data_value
0  CCCCC/C=C\C/C=C\CCCCC/C=C/C(=O)CC(O)COC(C)=O (stereo not drawn) [Acetogenin 4, Persenone-A]         IC50        mM   >          15
1  C=C/C=C/CCCCCCCCCCCC(=O)CC(O)COC(C)=O (stereo not drawn) [Acetogenin 2, Persediene]         IC50        mM   >          15
2  C=CCCCCCCCCCCC[C@H](O)C[C@H](O)COC(C)=O [Acetogenin 1]         IC50        mM   =        13.4
3  CCCCC/C=C\C/C=C\CCCCCCCC(=O)CC(O)COC(C)=O (stereo not drawn) [Acetogenin 6, Persin]         IC50        mM   >          15
4  CC/C=C/CCCCCCCCC/C=C/C(=O)CC(O)COC(C)=O (stereo not drawn) [Acetogenin 3, Persenone-C]         IC50        mM   =         7.4
5  CC(=O)Oc1ccccc1C(=O)O [Aspirin, acetylysalicylic acid, reference compound]         IC50        mM   =        0.07

Values were extracted from patent US10493057B2.
